TARGET OR SYSTEM: Cytochrome P450 2D6 (Homo sapiens) (UniProt P10635)
Sequence (P10635 whole entry, looked up): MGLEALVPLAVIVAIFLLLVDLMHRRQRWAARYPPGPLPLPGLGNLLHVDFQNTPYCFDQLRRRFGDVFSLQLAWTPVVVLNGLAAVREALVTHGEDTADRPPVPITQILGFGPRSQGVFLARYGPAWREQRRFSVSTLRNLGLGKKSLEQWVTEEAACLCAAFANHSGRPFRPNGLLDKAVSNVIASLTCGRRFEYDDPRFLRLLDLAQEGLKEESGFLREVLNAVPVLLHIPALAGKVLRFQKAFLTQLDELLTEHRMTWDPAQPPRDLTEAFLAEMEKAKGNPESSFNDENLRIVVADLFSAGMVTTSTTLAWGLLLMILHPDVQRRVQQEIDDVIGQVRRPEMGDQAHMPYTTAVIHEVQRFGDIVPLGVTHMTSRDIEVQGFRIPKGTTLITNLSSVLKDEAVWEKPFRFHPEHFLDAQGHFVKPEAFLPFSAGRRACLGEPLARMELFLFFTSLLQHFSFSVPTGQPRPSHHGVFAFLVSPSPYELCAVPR
PROCEDURE DETAILS: Cytochrome panel assay with activity outcomes
TEST SETTINGS: recombinant CYP, pro-luciferin dealkylation, luminescence, p450-cyp2d6; series mostly up to 57.1 µM
About 2,600 (16%) of roughly 16,000 compounds were called active. Not shown: some 20% with an inconclusive outcome. Calls come from the whole dose curve; as a rule, active = well fitted curve in the direction sought with a large enough effect; inconclusive = small, poorly fitted or top-dose-only effect, or effect the other way; inactive = no such curve, though single readings can be large or run the other way. The list is a sample of the results.
Outcomes: label 1 for active, label 0 for inactive

1. CN1CCCC2(CCN(C(=O)c3cc(C(F)(F)F)cc(C(F)(F)F)c3)CC2)C1 = label 0
2. CC(=O)Nc1nonc1NC(=O)c1ccc(C(C)(C)C)cc1 = label 1
3. O=C(c1ccco1)N1CCC[C@@]2(CCN(C(c3ccccc3)c3ccccc3)C2)C1 = label 1
4. CN(C)c1ccc(-c2cc(NCc3cccnc3)ncn2)cc1 = label 0
5. O=C(O)NCC1CCCCC1 (tested in a mixture with another compound) = label 1
6. CC(C)NC(=O)N1CCC2(CC1)CCN(C(=O)c1ccco1)CC2 = label 0
7. Cn1c(-c2ccc(F)cc2)cnc1NCc1cccc(F)c1 = label 1
8. O=C1N=C(N2CCOCC2)S/C1=C\C=C/c1ccccc1 = label 0
9. CC(C)NC(=O)N1CCCC2(CCN(C(=O)c3ccco3)CC2)C1 = label 1
10. Cc1cc(C)n(C(=O)CCCCCCCCC(=O)n2nc(C)cc2C)n1 = label 0
11. O=C(Nc1ccccc1)N1CCCC2(CCN(C(=O)c3ccco3)CC2)C1 = label 0
12. COc1ccc(CC(=O)Nc2ccc(-c3noc(-c4cccc(OC)c4)n3)cc2)cc1 = label 0
13. COCCN(C(=O)C(C)C)c1nnc(-c2ccc(C)cc2)s1 = label 0
14. Cc1cccc(Oc2coc3cc(OC(=O)c4cc5ccccc5oc4=O)ccc3c2=O)c1 = label 0
15. CCN1CCc2c(sc(NC(=S)NC(=O)c3ccccc3)c2C#N)C1 = label 0

These data points were gathered from PubChem BioAssay AID1851.
